# System: CAKI-1 renal
# ASSAY INFO: NCI-60 one-dose screen, 48 h (100 = growth as untreated, 0 = no growth, -100 = all killed)
# ASSAY SETUP: 10 µM unless noted
# Experimental: Growth inhibition of the CAKI-1 human tumor cell line is measured as a screen for anti-cancer activity. Cells are grown in 96 well plates and exposed to the test compound for 48 hours. Compounds are tested at a single concentration, which is 10^-5 M for most compounds. The reported endpoint is percent growth (GI% or GIPRCNT), where numbers from 0 - 100% represent growth inhibition, and numbers from -100% - 0 represent cell death. For example, a value of 40 represents 60% growth inhibition. […]
The panel holds about 83,000 compounds, 20% with a hit somewhere; the sample as a whole holds those more often.
Form field: growth (one value per entry).
MEASURED ATTRIBUTE: growth (%)

>>> reported("CS(=O)(=O)CCN1CC2CCCC(C2)C1")
97.1
>>> reported("C[C@]12CCc3sc(NCCc4ccccc4)nc3C1=CC[C@@H]1[C@@H]2CC[C@]2(C)C(=O)CC[C@@H]12")
73.5
>>> reported("C[N+]12CN3CN(CN(C3)C1)C2")
83.6
>>> reported("N#CC1(C#N)C(c2ccc(N(CCCl)CCCl)cc2)OC23CCCCC2C1(C#N)C(=N)O3 (stereo unspecified)")
55.8
>>> reported("Cc1ccc(C(=O)NCCCOc2ccc(N)cc2Cl)cc1S(=O)(=O)F")
92.5
>>> reported("CC(C)CCC(=O)O[C@H]1CC[C@H]2[C@@H]3CCC4=CC(=O)CC[C@]4(C)[C@H]3CC[C@]12C")
88.5
